test system: Acinetobacter baumannii; assay: Antibacterial activity against Acinetobacter baumannii ATCC 19606 using iron-deficient M9 minimal media after 15 hrs by broth microdilution assay; format: functional, organism-based; conditions: ATCC 19606 = CIP 70.34 = JCM 6841
Calls of active or inactive are those of the source. The rule behind the calls is not given here.

mol: O=C(O)c1cc(-c2ccc(-c3ccc(Cl)nc3)nc2)nc2c1cnn2Cc1ccncc1
Activity: inactive
//
mol: Nc1cc(-c2ccccc2)nc2c1cnn2Cc1ccncc1
Activity: inactive
//
mol: CCOC(=O)c1cc(-c2ccccc2)nc2c1cnn2Cc1ccncc1
Activity: inactive
//
mol: O=C(O)c1cc(-c2ccc(F)cc2F)nc2c1cnn2Cc1ccncc1
Activity: inactive
//
mol: CNC(=O)c1cc(-c2ccccc2)nc2c1cnn2Cc1ccncc1
Activity: inactive
//
mol: O=C(O)c1cc(-c2ccccc2)cc2c1ccn2Cc1ccncc1
Activity: inactive
//
mol: COc1cc(-c2cc(C(=O)O)c3cnn(Cc4ccncc4)c3n2)ccc1C(=O)O
Activity: inactive
//
mol: O=C(O)c1cc(-c2ccc([N+](=O)[O-])cc2)nc2c1cnn2Cc1ccncc1
Activity: inactive
//
mol: O=C(O)c1cc(-c2ccccc2)nc2c1cnn2Cc1ccncc1
Activity: inactive
//
mol: O=C(O)c1cc(-c2ccc(-c3ccc(Br)cc3)cc2)nc2c1cnn2Cc1ccncc1
Activity: inactive
//
mol: O=C(O)c1cc(-c2cccnc2)nc2c1cnn2Cc1ccncc1
Activity: inactive

----------
assay: Displacement of Fl-Sal-AMS from Acinetobacter baumanni BasE expressed in Escherichia coli after 30 mins by fluorescence polarization assay; design: species or system Acinetobacter baumannii; conditions: read-out: Kd
The entries below are paired with their reported Kd.
endpoint: Kd (nM)

mol: CCOC(=O)c1cc(-c2ccccc2)nc2c1cnn2Cc1ccncc1
endpoint: Kd
unit-annotation: nM
inequality-sign: =
recorded-measurement: 2160
--
mol: O=C(NC1CC1)c1cc(-c2ccccc2)nc2c1cnn2Cc1ccncc1
endpoint: Kd
unit-annotation: nM
inequality-sign: =
recorded-measurement: 150
--
mol: O=C(O)c1cc(-c2ccc(-c3ccc(Br)cc3)cc2)nc2c1cnn2Cc1ccncc1
endpoint: Kd
unit-annotation: nM
inequality-sign: =
recorded-measurement: 181
--
mol: COc1ccc(COc2ccc(-c3cc(C(=O)O)c4cnn(Cc5ccncc5)c4n3)cc2)cc1
endpoint: Kd
unit-annotation: nM
inequality-sign: =
recorded-measurement: 44.5
--
mol: CN(C)c1ccc(-c2cc(C(=O)O)c3cnn(Cc4ccncc4)c3n2)cc1
endpoint: Kd
unit-annotation: nM
inequality-sign: =
recorded-measurement: 628
--
mol: O=C(O)c1cc(-c2ccccc2)nc2c1cnn2Cc1cccnc1
endpoint: Kd
unit-annotation: nM
inequality-sign: >
recorded-measurement: 100000
--
mol: CC(C)n1ncc2c(C(=O)O)cc(-c3ccccc3)nc21
endpoint: Kd
unit-annotation: nM
inequality-sign: >
recorded-measurement: 500000
--
mol: CN(C)C(=O)c1cc(-c2ccccc2)nc2c1cnn2Cc1ccncc1
endpoint: Kd
unit-annotation: nM
inequality-sign: =
recorded-measurement: 334
--
mol: O=C(O)c1cc(-c2cncc3ccccc23)nc2c1cnn2Cc1ccncc1
endpoint: Kd
unit-annotation: nM
inequality-sign: =
recorded-measurement: 7730
--
mol: O=C(O)c1cc(-c2ccco2)nc2c1cnn2Cc1ccncc1
endpoint: Kd
unit-annotation: nM
inequality-sign: =
recorded-measurement: 342
--
mol: Nc1cc(-c2ccccc2)nc2c1cnn2Cc1ccncc1
endpoint: Kd
unit-annotation: nM
inequality-sign: =
recorded-measurement: 200
--
mol: Cc1ccc(-c2cc(C(=O)O)c3cnn(Cc4ccncc4)c3n2)s1
endpoint: Kd
unit-annotation: nM
inequality-sign: =
recorded-measurement: 7.6
